Molecular target: P2Y purinoceptor 2 (Homo sapiens, UniProt P41231)
Sequence (P41231 whole entry): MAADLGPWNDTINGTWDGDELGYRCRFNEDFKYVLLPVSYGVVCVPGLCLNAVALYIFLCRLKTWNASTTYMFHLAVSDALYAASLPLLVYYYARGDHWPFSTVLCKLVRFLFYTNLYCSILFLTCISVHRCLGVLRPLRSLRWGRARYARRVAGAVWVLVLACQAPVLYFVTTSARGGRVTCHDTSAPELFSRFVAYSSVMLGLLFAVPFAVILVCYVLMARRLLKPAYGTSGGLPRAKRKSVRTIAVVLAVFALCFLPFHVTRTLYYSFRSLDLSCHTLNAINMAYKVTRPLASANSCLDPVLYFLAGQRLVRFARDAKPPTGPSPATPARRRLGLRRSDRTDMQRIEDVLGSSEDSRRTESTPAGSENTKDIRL
Test: Antagonist activity at human P2Y2R expressed in human 1321N1 cells assessed as inhibition of UTPgammaS-activated calcium-mobilization preincubated for 45 mins measured every 1.52 secs for 200 secs after the addition of UTPgammaS at 15 secs by fluo-4AM-based fluorescence assay
Assay type: functional, cell-based
ASSAY METRIC: pKb

Respond only with pKb recorded for CCOCCNc1nc2c(s1)C=Cc1cc(Cl)ccc1[C@H]2c1cn(C)c(=O)[nH]c1=S
6.74 to 6.78

Respond only with pKb recorded for COCCNc1nc2c(s1)C=Cc1cc(Cl)ccc1C2c1cn(C)c(=O)[nH]c1=S (racemic)
6.6

Respond only with pKb recorded for Cc1ccc2c(c1)C=Cc1cc(C)ccc1C2c1cn(Cc2nc(C(=O)Nc3nnn[nH]3)cs2)c(=O)[nH]c1=S
7.11

Respond only with pKb recorded for Cc1nc2c(s1)C=Cc1cc(Cl)ccc1C2c1cn(Cc2nc(C(=O)Nc3nnn[nH]3)cs2)c(=O)[nH]c1=S (centres undefined)
6.48
